System: myeloid leukemia patient primary cells Pat.1
assay_remarks: cell viability (% survival relative to DMSO control); higher = less cytotoxic
reported_conditions: 1 nM; 72 h
Parameter cell viability: see the listing below.

| molecule | cell viability |
| --- | --- |
| CC12CCC(O)CC1CCC1C2CCC2(C)C(C3=CC(=O)OC3)CCC12O (centres undefined) | 95.1% |
| C[C@]12O[C@H](C[C@]1(O)CO)n1c3ccccc3c3c4c(c5c6ccccc6n2c5c31)CNC4=O | 93.5% |
| CCOC(=O)N1c2ccc(C(F)(F)F)cc2[C@@H](N(Cc2cc(C(F)(F)F)cc(C(F)(F)F)c2)C(=O)OC)C[C@H]1CC | 93.1% |
| CC(Cc1ccc(O)c(O)c1)C(C)Cc1ccc(O)c(O)c1 (centres undefined) | > 100% |
